Each recorded value in this set is attributed to ChEMBL document CHEMBL1157727.

Experiment: in vivo
Conditions: Wistar, rat, 1 mg/kg
Recorded endpoint: half-life

Fill in the blank: the reported half-life of CCN(NC(=O)C(F)(F)F)C(=O)N[C@H](C)c1ncc(-c2cc(Cl)cc(Cl)c2OCC(F)F)cc1F is ____.
2.25 h

----------
Assay: in vivo
Settings: Wistar, rat, iv, 1 mg/kg
Recorded endpoint: clearance

Consider the compound CCN(NC(=O)C(F)(F)F)C(=O)N[C@H](C)c1ncc(-c2cc(Cl)cc(Cl)c2OCC(F)F)cc1F and give its measured clearance.
7 mL/min/kg

----------
Assay: in vivo
Conditions: Wistar, rat, po, 1 mg/kg
Recorded endpoint: bioavailability

Dear colleague, I am looking for the recorded bioavailability of the following compound: CCN(NC(=O)C(F)(F)F)C(=O)N[C@H](C)c1ncc(-c2cc(Cl)cc(Cl)c2OCC(F)F)cc1F
> 44%
